System under test: UniProt:Q8TDX5
Assay name: Determination of ACMSD1 inhibition, spectrophotometrical in vitro assay (conversion of 3OH-anthranilic acid into ACMS)
Condition context: HAA concentration of 10 μM; recombinant ACMSD1 from Pichia pastoris; 25° C.; absorbance at 360 nm
Protocol: The activity of compounds as inhibitors of ACMSD1 is determined in a spectrophotometrical in vitro assay. […] Kinetic parameters are calculated from the initial velocity data using a Lineweaver-Burk plot. […] The rate of the decrease in absorbance caused by ACMSD1 was calculated by subtracting that of the control reaction mixture without ACMSD from that described above. […] The enzymatic activity was determined at a HAA concentration of 10 μM in the presence of the compounds in Table 1 below. […]
Measurement label: IC50

{"Smiles structure": "N#Cc1c(SCc2cccc(CC(=O)O)c2)[nH]c(=O)c(C#N)c1-c1cccs1", "Result": "< 0.1 µM"}
{"Smiles structure": "Cn1nnc(-c2cccc(CSc3nc(-c4cccs4)c(C#N)c(=O)[nH]3)c2)n1", "Result": "1 to 10 µM"}
{"Smiles structure": "COc1nc(SCc2cccc(CC(=O)O)c2)nc(-c2cccs2)c1C#N", "Result": "1 to 10 µM"}
{"Smiles structure": "N#CCc1cccc(CSc2nc(-c3cccs3)c(C#N)c(=O)[nH]2)c1", "Result": "1 to 10 µM"}
{"Smiles structure": "N#Cc1c(-c2cccs2)nc(NCc2cccc(CC(=O)O)c2)[nH]c1=O", "Result": "1 to 10 µM"}
{"Smiles structure": "N#Cc1c(SCc2cccc(-c3nnn[nH]3)c2)[nH]c(=O)c(C#N)c1-c1cccs1", "Result": "< 0.1 µM"}
{"Smiles structure": "N#Cc1c(-c2cccs2)nc(SCc2cccc(-c3nn[nH]n3)c2)[nH]c1=O", "Result": "< 0.1 µM"}
{"Smiles structure": "N#Cc1c(-c2cccs2)cc(=O)[nH]c1SCc1cccc(CC(=O)O)c1", "Result": "< 0.1 µM"}
{"Smiles structure": "N#Cc1c(-c2cccs2)nc(SCc2cccc(C(N)=O)c2)[nH]c1=O", "Result": "0.1 to 1 µM"}

* * *

System under test: UniProt Q8TDX5
Assay name: Determination of ACMSD1 inhibition, spectrophotometrical in vitro assay (conversion of 3OH-anthranilic acid into ACMS)
Condition context: HAA concentration of 10 μM; recombinant ACMSD1 from Pichia pastoris; 25° C.; absorbance at 360 nm
Experimental: The activity of compounds as inhibitors of ACMSD1 is determined in a spectrophotometrical in vitro assay. […] Kinetic parameters are calculated from the initial velocity data using a Lineweaver-Burk plot. […] The rate of the decrease in absorbance caused by ACMSD1 was calculated by subtracting that of the control reaction mixture without ACMSD from that described above. […] The enzymatic activity was determined at a HAA concentration of 10 μM in the presence of the compounds in Table 1 below. […]

{"Compound": "CNc1nc(SCc2cccc(CC(=O)O)c2)nc(-c2cccs2)c1C#N [I-9]", "System under test": "UniProt Q8TDX5", "IC50": "100 to 1000 nM"}
{"Compound": "CCOC(=O)Cc1cccc(CSc2nc(-c3cccs3)c(C#N)c(=O)[nH]2)c1 [I-1]", "System under test": "UniProt Q8TDX5", "IC50": "1000 to 10000 nM"}
{"Compound": "N#Cc1c(Cc2ccccc2)nc(SCC(=O)O)[nH]c1=O [I-30]", "System under test": "UniProt Q8TDX5", "IC50": "100 to 1000 nM"}
{"Compound": "N#Cc1c(-c2cccs2)nc(SCc2cccc(-c3cc(F)c(O)c(F)c3)c2)[nH]c1=O [I-3]", "System under test": "UniProt Q8TDX5", "IC50": "< 100 nM"}
{"Compound": "O=c1cc(C(F)(F)F)nc(SCc2nnn[nH]2)[nH]1 [I-26]", "System under test": "UniProt Q8TDX5", "IC50": "< 100 nM"}
{"Compound": "N#Cc1c(-c2ccccc2)cc(=O)[nH]c1SCc1cccc(CC(=O)O)c1 [I-19]", "System under test": "UniProt Q8TDX5", "IC50": "< 100 nM"}
{"Compound": "N#Cc1c(C(F)(F)F)cc(=O)[nH]c1SCc1cccc(CC(=O)O)c1 [I-36]", "System under test": "UniProt Q8TDX5", "IC50": "100 to 1000 nM"}
{"Compound": "N#Cc1c(-c2cccs2)nc(SCc2cc(F)c(O)c(F)c2)[nH]c1=O [I-39]", "System under test": "UniProt Q8TDX5", "IC50": "1000 to 10000 nM"}
{"Compound": "N#Cc1c(Cc2ccccc2)nc(SCc2cc(F)c(O)c(F)c2)[nH]c1=O [I-41]", "System under test": "UniProt Q8TDX5", "IC50": "1000 to 10000 nM"}

* * *

System under test: hACMSD (ACMSD1) (Homo sapiens, UniProt Q8TDX5)
Sequence (Q8TDX5 whole entry): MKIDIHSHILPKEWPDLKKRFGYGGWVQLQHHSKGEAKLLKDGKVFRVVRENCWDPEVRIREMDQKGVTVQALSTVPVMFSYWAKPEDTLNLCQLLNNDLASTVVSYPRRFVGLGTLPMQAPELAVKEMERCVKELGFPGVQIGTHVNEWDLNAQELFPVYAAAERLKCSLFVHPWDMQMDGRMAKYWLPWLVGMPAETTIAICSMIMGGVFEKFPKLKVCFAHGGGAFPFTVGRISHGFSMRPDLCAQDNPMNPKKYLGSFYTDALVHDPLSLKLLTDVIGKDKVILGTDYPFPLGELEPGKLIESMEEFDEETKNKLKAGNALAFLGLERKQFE
Assay name: Determination of ACMSD1 inhibition, spectrophotometrical in vitro assay (conversion of 3OH-anthranilic acid into ACMS)
Condition context: HAA concentration of 10 μM; recombinant ACMSD1 from Pichia pastoris; 25° C.; absorbance at 360 nm
Items are presented alongside their recorded IC50.
Measurement label: IC50

{"Smiles structure": "O=C(O)Cc1cccc(CSc2nc(C(F)(F)F)cc(=O)[nH]2)c1", "Result": "100 to 1000 nM"}
{"Smiles structure": "N#Cc1c(Cc2ccccc2)nc(SCc2cccc(-c3nnn[nH]3)c2)[nH]c1=O", "Result": "< 100 nM"}
{"Smiles structure": "N#Cc1c(-c2cccs2)nc(SCc2cccc(S(N)(=O)=O)c2)[nH]c1=O", "Result": "100 to 1000 nM"}
{"Smiles structure": "N#Cc1c(-c2cccs2)nc(NCc2cccc(Cc3nnn[nH]3)c2)[nH]c1=O", "Result": "< 100 nM"}
{"Smiles structure": "N#Cc1c(-c2cccs2)nc(SCc2nnn[nH]2)[nH]c1=O", "Result": "< 100 nM"}
{"Smiles structure": "N#Cc1c(Br)nc(SCc2cccc(CC(=O)O)c2)nc1-c1cccs1", "Result": "100 to 1000 nM"}
{"Smiles structure": "CCOC(=O)Cc1cccc(CSc2nc(=O)c(C#N)c(-c3cccs3)n2C)c1", "Result": "> 10000 nM"}
{"Smiles structure": "CNc1nc(SCc2cccc(C(=O)O)c2)nc(-c2cccs2)c1C#N", "Result": "1000 to 10000 nM"}

* * *

System under test: hACMSD (ACMSD1) (Homo sapiens, UniProt Q8TDX5)
Assay name: Determination of ACMSD1 inhibition, spectrophotometrical in vitro assay (conversion of 3OH-anthranilic acid into ACMS)
Condition context: HAA concentration of 10 μM; recombinant ACMSD1 from Pichia pastoris; 25° C.; absorbance at 360 nm
Items are presented alongside their recorded IC50.

{"Smiles structure": "N#Cc1c(Cc2ccccc2)nc(SCc2cccc(CC(=O)O)c2)[nH]c1=O", "IC50": "< 100 nM"}
{"Smiles structure": "N#Cc1c(Cc2ccccc2)nc(SCc2nnn[nH]2)[nH]c1=O", "IC50": "< 100 nM"}
{"Smiles structure": "N#Cc1c(-c2cccs2)nc(SCc2cccc(CC(=O)O)c2)nc1N1CCOCC1", "IC50": "1000 to 10000 nM"}
{"Smiles structure": "N#Cc1c(NC2CC2)nc(SCc2cccc(CC(=O)O)c2)nc1-c1cccs1", "IC50": "1000 to 10000 nM"}
{"Smiles structure": "N#Cc1cccc(CSc2nc(-c3cccs3)c(C#N)c(=O)[nH]2)c1", "IC50": "1000 to 10000 nM"}
{"Smiles structure": "N#Cc1c(-c2cccs2)nc(N[C@H]2CC[C@H](C(=O)O)CC2)[nH]c1=O", "IC50": "> 10000 nM"}
{"Smiles structure": "O=C(O)c1cccc(CSc2nc(C(F)(F)F)cc(=O)[nH]2)c1", "IC50": "1000 to 10000 nM"}
{"Smiles structure": "O=C(O)CSc1nc(C(F)(F)F)cc(=O)[nH]1", "IC50": "100 to 1000 nM"}
{"Smiles structure": "N#Cc1c(-c2cccs2)nc(NCc2cccc(C(=O)O)c2)[nH]c1=O", "IC50": "1000 to 10000 nM"}
{"Smiles structure": "N#Cc1c(-c2cccs2)nc(SCCC(=O)O)[nH]c1=O", "IC50": "1000 to 10000 nM"}
